These data points were gathered from patent US20120270844A1.

# ASSAYED_SYSTEM: PAK3 (Homo sapiens)
# Sequence (O75914 whole entry): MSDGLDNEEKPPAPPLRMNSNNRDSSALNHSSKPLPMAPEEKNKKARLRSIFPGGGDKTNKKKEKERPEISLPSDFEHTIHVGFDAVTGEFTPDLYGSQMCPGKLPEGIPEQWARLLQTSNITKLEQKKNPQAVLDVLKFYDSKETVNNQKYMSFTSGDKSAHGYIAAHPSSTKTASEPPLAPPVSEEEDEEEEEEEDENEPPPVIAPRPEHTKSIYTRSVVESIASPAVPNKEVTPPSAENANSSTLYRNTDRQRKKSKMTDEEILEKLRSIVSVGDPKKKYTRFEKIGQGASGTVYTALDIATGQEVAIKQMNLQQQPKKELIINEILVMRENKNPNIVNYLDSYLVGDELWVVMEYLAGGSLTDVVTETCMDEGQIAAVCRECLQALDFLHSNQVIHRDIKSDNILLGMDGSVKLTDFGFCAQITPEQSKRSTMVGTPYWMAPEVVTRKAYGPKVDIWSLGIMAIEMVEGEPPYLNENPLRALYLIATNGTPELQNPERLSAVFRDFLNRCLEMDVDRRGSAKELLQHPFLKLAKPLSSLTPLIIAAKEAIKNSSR
# MEASUREMENT_DESCRIPTION: Z'Lyte fluorescence-based (FRET) PAK kinase assay, PAK3
# Assay type: biochemical
# TEST_CONDITIONS: Table 1 of Example 100; 100 μM ATP
ATTRIBUTE_MEASURED: IC50

// below: answered compounds
compound=CN1CCN(c2ccc(Nc3ncc4ccc(=O)n(Cc5ccccc5OC(F)F)c4n3)cc2)CC1 assayed_system="PAK3 (Homo sapiens)" attribute_measured=IC50 test_value="< 1 µM"
compound=CN1CCN(c2ccc(Nc3ncc4ccc(=O)n(C5Cc6ccccc6C5)c4n3)cc2)CC1 assayed_system="PAK3 (Homo sapiens)" attribute_measured=IC50 test_value="1 to 10 µM"
compound="O=c1ccc2cnc(Nc3ccc(NC4CCCNC4)cc3)nc2n1Cc1ccccc1C(F)(F)F (stereo not shown)" assayed_system="PAK3 (Homo sapiens)" attribute_measured=IC50 test_value="< 1 µM"

// moving on: another record for IC50
get_value(item= CN(c1ccc(Nc2ncc3ccc(=O)n(Cc4ccccc4C(F)(F)F)c3n2)cc1)C1CCCNC1 (stereo not shown) , readout=IC50) returns < 1 µM
